src = patent US20230391760A1

# TARGET_ENTITY: GLP-1 Receptor (Homo sapiens)
# Sequence (P43220 24-463, species assumed): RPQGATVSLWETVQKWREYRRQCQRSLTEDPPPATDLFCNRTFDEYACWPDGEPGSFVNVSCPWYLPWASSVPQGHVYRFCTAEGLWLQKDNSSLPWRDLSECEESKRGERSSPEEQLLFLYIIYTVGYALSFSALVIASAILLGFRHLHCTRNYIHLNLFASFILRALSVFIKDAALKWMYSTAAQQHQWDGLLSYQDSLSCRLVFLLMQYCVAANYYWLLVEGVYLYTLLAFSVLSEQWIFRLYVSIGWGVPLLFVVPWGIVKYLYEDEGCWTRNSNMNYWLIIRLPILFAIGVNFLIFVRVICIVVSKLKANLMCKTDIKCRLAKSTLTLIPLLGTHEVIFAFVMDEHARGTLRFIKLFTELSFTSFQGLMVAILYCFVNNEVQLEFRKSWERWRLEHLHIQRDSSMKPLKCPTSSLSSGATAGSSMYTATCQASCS
# ASSAY_INFO: GLP-1R agonist cAMP stimulation assay (HEK293/GLP1R/CRE-LUC cells, cAMP dynamic 2 Kit)
# CONDITION_LABEL: HEK293/CRE-Luc cell line stably expressing the GLP-1 Receptor, 30 min at 37° C.
# From the text: Activation of GLP-1 receptor is known to stimulate cyclic AMP (cAMP) production in cells which indicates primary coupling to the Gαs subunit of the G protein heterotrimeric complex. […] To optimize functional activity directed toward Gαs coupling, a HEK293/CRE-Luc cell line developed by HDB stably expressing the GLP-1 Receptor was used. […]
// classify(record): look up EC50 in ranges group 1: < 0.06 nM; group 2: ≥ 0.06 nM and < 0.5 nM; group 3: ≥ 0.5 nM

COMPOUND	CLASSIFICATION
CC1(c2ccc(Cl)cc2F)Oc2cccc(C3CCN(Cc4nc5cc(-c6noc(=O)[nH]6)cnc5n4C[C@H]4CCOC4)CC3)c2O1 (stereo partly drawn) [Compound 400a]	group 3
Cc1cnc(C(=O)Nc2ccc3c(c2)nc(CN2CCC(c4cccc(OCc5ccc(Cl)cc5F)n4)CC2)n3C[C@@H]2CCO2)c(C)c1 [Compound 184a]	group 3
C[C@H]1CN(c2ncc(F)c(OCc3ccc(Cl)cc3F)n2)CCN1Cc1nc2cc(-c3nnc(C(F)(F)F)[nH]3)ncc2n1C[C@@H]1CCO1 [Compound 489a]	group 2
C[C@H]1CN(c2ccc(F)c(OCc3ccc(Cl)cc3F)c2)CCN1Cc1nc2cc(-c3nnc(C(F)(F)F)[nH]3)ncc2n1C[C@@H]1CCO1 [Compound 479a]	group 2
C[C@]1(c2ccc(Cl)cc2F)Oc2cccc(C3CCN(Cc4nc5cc(-c6nnc[nH]6)ncc5n4C[C@@H]4CCO4)CC3)c2O1 [Compound 440a]	group 1
O=C(Nc1ccc2c(c1)nc(CN1CCC(c3cccc(OCc4ccc(Cl)cc4F)n3)CC1)n2C[C@@H]1CCO1)c1cncnc1 [Compound 200a]	group 2
O=C(Nc1ccc2c(c1)nc(CN1CCC(c3cccc(OCc4ccc(Cl)cc4F)n3)CC1)n2C[C@@H]1CCO1)C1Cc2ccncc2C1 (stereo partly drawn) [Compound 180a]	group 3
Cc1ncccc1C(=O)Nc1ccc2c(c1)nc(CN1CCC(c3cccc(OCc4ccc(Cl)cc4F)n3)CC1)n2C[C@@H]1CCO1 [Compound 188a]	group 1
CC1(c2ccc(F)cc2F)Oc2cccc(C3CCN(Cc4nc5cc(-c6nnc(C(F)(F)F)[nH]6)ccc5n4C[C@@H]4CCO4)CC3)c2O1 (stereo partly drawn) [Compound 259a]	group 2
CC1(c2ccc(Cl)cc2)Oc2cccc(C3CCN(Cc4nc5cc(-c6nnc(C(F)(F)F)[nH]6)cnc5n4C[C@@H]4CCO4)CC3)c2O1 (stereo partly drawn) [Compound 225a]	group 2
O=C(Nc1ccc2c(c1)nc(CN1CCC(c3cccc(OCc4ccc(Cl)cc4F)n3)CC1)n2C[C@@H]1CCO1)C1CCCOC1 (single isomer, unassigned) [Compound 154b]	group 2
O=C(Nc1ccc2c(c1)nc(CN1CCC(c3cccc(OCc4ccc(Cl)cc4F)n3)CC1)n2C[C@@H]1CCO1)C1CCCCO1 (stereo partly drawn) [Compound 155a]	group 3
CC1(c2ccc(Cl)cc2)Oc2cccc(C3CCN(Cc4nc5cc(-c6noc(=O)[nH]6)ncc5n4C[C@@H]4CCO4)CC3)c2O1 (stereo partly drawn) [Compound 347a]	group 1
CO[C@@H](C)Cn1c(CN2CCC(c3cccc4c3OC(C)(c3ccc(Cl)cn3)O4)CC2)nc2cc(-c3noc(=O)[nH]3)ncc21 (stereo partly drawn) [Compound 437a]	group 3
Fc1cc(Cl)ccc1COc1ncc(F)c(C2=CCC(Cc3nc4cc(-c5nnn[nH]5)ccc4n3C[C@@H]3CCO3)CC2)n1 (stereo partly drawn) [Compound 241a]	group 2
C[C@H]1CN(c2ccc(F)c(OCc3ccc(C#N)cc3F)c2)CCN1Cc1nc2cc(-c3nnc(C(F)(F)F)[nH]3)nnc2n1C[C@@H]1CCO1 [Compound 522a]	group 2
O=C(Nc1ccc2c(c1)nc(CN1CCC(c3cccc(OCc4ccc(Cl)cc4F)n3)CC1)n2C[C@@H]1CCO1)C1COCCO1 (stereo partly drawn) [Compound 172a]	group 2
Fc1cc(Cl)ccc1COc1nc(C2CCN(Cc3nc4cc(-c5nnc(C(F)(F)F)[nH]5)nnc4n3C[C@@H]3CCO3)CC2)ccc1F [Compound 488a]	group 1
CC1(c2ccc(Cl)cc2F)Oc2cccc(C3CCN(Cc4nc5cc(-c6nnc(C(F)F)[nH]6)ccc5n4C[C@@H]4CCO4)CC3)c2O1 (stereo partly drawn) [Compound 227a]	group 2
CC1(c2ccc(Cl)cc2F)Oc2cccc(C3CCN(Cc4nc5cc(-c6nnc(C(F)(F)F)[nH]6)ccc5n4C[C@@H]4CCO4)CC3)c2O1 (single isomer, unassigned) [Compound 229c]	group 1
C[C@H]1CN(c2ncc(F)c(OCc3ccc(Cl)cc3F)n2)CCN1Cc1nc2cc(-c3nnc(C(F)(F)F)[nH]3)cnc2n1C[C@@H]1CCO1 [Compound 527a]	group 1
Fc1cc(Cl)ccc1COc1cccc(C2=CCN(Cc3nc4cc(-c5nnc(C(F)(F)F)[nH]5)cnc4n3C[C@@H]3CCO3)CC2)n1 [Compound 323a]	group 1
Cc1nnc(-c2cc3nc(CN4CCC(c5cccc6c5O[C@@](C)(c5ccc(Cl)cn5)O6)CC4)n(C[C@@H]4CCO4)c3nn2)[nH]1 [Compound 477a]	group 3
